The following sequences are listed with their measured log2 fold change of degron read counts values.
# target.or.test.system: T1, CRBN, Q96SW2;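 further: pooled lentiviral library of zinc finger degron-EGFP fusions in mCherry-positive Jurkat cells, FACS-sorted after compound exposure, with degron abundance counted by next-generation sequencing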
# T1 chain: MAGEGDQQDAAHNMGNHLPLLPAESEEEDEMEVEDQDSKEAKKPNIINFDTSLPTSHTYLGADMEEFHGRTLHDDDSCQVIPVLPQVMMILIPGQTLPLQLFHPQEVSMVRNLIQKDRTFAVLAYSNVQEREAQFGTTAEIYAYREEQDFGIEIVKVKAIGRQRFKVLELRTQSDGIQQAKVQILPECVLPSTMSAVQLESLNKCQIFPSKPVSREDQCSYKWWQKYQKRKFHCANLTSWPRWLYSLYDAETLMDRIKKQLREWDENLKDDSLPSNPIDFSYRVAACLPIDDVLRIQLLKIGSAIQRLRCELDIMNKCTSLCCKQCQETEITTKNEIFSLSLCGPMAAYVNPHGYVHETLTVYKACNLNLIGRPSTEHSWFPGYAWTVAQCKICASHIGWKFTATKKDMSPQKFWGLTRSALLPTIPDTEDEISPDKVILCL
# procedure.text: log2 fold change of degron read counts, EGFP-low vs EGFP+ sorted cells (limma voom), compound-induced degradation; higher = more compound-induced degradation of the degron-EGFP fusion; degrons are variants of IKZF1/3 zinc finger 2; compound dose not given here
# protocol.conditions: Jurkat; 18 h; compound: compound 33 (diphenyl IMiD analogue)
Over roughly 8,300 sequences, “log2 fold change of degron read counts, EGFP-low vs EGFP+ sorted cells (limma voom), compound-induced degradation” has its median near -1.1; the highest 2% begin near 3.2. The full list was thinned out, with the highest values kept by preference.
measure: log2 fold change of degron read counts

INSERT INTO results (chain, recorded_measurement) VALUES
  ('LWCPICGFRCTQKGNLLRHIKL [46L_47W_49P_50I_52G_53F_54R_55C_67L_, Q9UKT9]', 2.31),
  ('FSCNQCGRCFTQKGNLLRHIKL [46F_47S_49N_50Q_52G_53R_54C_55F_67L_, Q9UKT9]', -2.83),
  ('LWCPICGFNCTQKGNLLRHIKL [46L_47W_49P_50I_52G_53F_54N_55C_67L_, Q9UKT9]', 2.36),
  ('LICPICGFRCTQKGNLLRHIKL [46L_47I_49P_50I_52G_53F_54R_55C_67L_, Q9UKT9]', 1.19),
  ('FFCEICGRCFTQKGNLLRHIKL [46F_47F_49E_50I_52G_53R_54C_55F_67L_, Q9UKT9]', 0.232),
  ('FSCDVCGAMFTQKGNLLRHIKL [46F_47S_49D_50V_52G_53A_54M_55F_67L_, Q9UKT9]', -0.74),
  ('FHCPICGAYFTQKGNLLRHIKL [46F_47H_49P_50I_52G_53A_54Y_55F_67L_, Q9UKT9]', 1.93);
